# EXPERIMENT_NOTES: Solubility of acyclovir in glycerol formal/water and glycerol formal/propylene glycol/water mixtures
# Format: physicochemical
# ASSAY_CONTEXT: glycerol formal/water 40/20, organic solvent or mixture; Glycerol formal/propylene glycol/water 40/0/20 g/g/ml; room temperature
ENDPOINT_NAME: solubility at 2 h (µg/mL)
Lab book: enter the figure in µg/mL, no units written.

Answer with reported solubility at 2 h of Nc1nc2c(ncn2COCCO)c(=O)[nH]1 [acyclovir, 9-[(2-hydroxyethoxy)methyl]guanine]
5730

Values from patent EP0662819B1
